Values were extracted from paper PMC6222450.

Molecular target: dopaminergic D2LR (Homo sapiens)
Sequence (P14416 whole entry): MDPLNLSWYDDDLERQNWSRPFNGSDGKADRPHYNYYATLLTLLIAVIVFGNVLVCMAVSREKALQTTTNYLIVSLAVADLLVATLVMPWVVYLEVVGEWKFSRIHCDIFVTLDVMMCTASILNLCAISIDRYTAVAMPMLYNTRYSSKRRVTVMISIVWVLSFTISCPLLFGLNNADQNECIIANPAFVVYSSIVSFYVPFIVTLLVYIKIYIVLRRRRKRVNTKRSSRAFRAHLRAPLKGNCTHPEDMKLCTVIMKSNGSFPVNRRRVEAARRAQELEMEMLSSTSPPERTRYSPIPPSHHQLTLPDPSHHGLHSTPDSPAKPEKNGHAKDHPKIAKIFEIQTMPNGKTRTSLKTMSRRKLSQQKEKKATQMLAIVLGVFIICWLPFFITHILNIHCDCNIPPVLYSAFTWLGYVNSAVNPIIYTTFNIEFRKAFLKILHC
Assay: Radioligand binding assay, D2LR, [3H]-Raclopride
Settings: human D2L receptor stably expressed in HEK-293 cells; read-out: Ki D2 [3H]-Raclopride
pKi: −log10 of the molar value.
REPORTED PROPERTY: pKi

>>> observed_measurement("CN1CCN(c2nc(N)nc(CN3C(=O)NC(C)(c4ccc(Cl)c(Cl)c4Cl)C3=O)n2)CC1 (stereo not drawn)")
5.32
>>> observed_measurement("CN1CCN(c2nc(N)nc(CN3C(=O)NC(C)(c4cccc(Cl)c4)C3=O)n2)CC1 (stereo not drawn)")
4.78
>>> observed_measurement("CN1CCN(c2nc(N)nc(CN3C(=O)N(Cc4ccc5ccccc5c4)C(C)(C)C3=O)n2)CC1")
6.05
